# target of assay: Cytochrome P450 3A7 (Homo sapiens, UniProt P24462)
# Sequence (P24462 whole entry): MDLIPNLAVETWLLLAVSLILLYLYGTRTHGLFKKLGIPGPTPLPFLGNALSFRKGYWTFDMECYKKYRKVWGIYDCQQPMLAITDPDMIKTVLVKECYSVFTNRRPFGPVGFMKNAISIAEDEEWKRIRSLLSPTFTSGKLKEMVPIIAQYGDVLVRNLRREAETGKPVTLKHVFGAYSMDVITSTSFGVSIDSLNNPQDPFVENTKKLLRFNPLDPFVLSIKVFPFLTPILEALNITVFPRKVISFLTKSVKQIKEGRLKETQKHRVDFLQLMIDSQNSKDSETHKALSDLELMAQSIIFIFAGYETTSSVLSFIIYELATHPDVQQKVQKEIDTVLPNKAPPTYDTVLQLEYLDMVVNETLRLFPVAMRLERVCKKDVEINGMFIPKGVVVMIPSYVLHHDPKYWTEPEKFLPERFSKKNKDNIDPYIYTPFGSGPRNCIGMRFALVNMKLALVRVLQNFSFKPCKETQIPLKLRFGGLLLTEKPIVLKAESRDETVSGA
# test: Mixed type inhibition of human recombinant CYP3A7 expressed in baculovirus-infected insect cells using diltiazem as substrate incubated for 30 mins followed by NADPH-generating system addition by Michaelis-Menten plot analysis
metric: Ki (µM)
Unit µM implied. Number only.

QUERY: Find the recorded Ki belonging to C=C(C)[C@@H]1CCC(C)=C[C@H]1c1c(O)cc(CCCCC)cc1O and report it.
RESULT: 12.3

---

# test: Cmax in human plasma at 3.5 +/- 5.5 mg, INH
# Type: ADME, cell-free
# Parameters: dose 3.5 mg
# experimental context: inhaled or intranasal, 3.5 mg
metric: Cmax (nM)
Unit nM implied. Number only.

QUERY: Find the recorded Cmax belonging to C=C(C)[C@@H]1CCC(C)=C[C@H]1c1c(O)cc(CCCCC)cc1O and report it.
RESULT: 11.1

---

# test: Volume of distribution in human at 20 mg, iv measured after 0.05 to 72 hrs by gas chromatograph mass spectrometry
# Assay type: ADME, organism-based
# experimental context: in vivo, time 0.05-72 hrs
metric: Vd (L)
Unit L implied. Number only.

QUERY: Find the recorded Vd belonging to C=C(C)[C@@H]1CCC(C)=C[C@H]1c1c(O)cc(CCCCC)cc1O and report it.
RESULT: 2520

---

# test: Half-life in human at 20 mg, iv measured after 0.05 to 72 hrs by gas chromatograph mass spectrometry
# Assay type: ADME, organism-based
# experimental context: in vivo, time 0.05-72 hrs
metric: half-life

QUERY: Find the recorded half-life belonging to C=C(C)[C@@H]1CCC(C)=C[C@H]1c1c(O)cc(CCCCC)cc1O [CANNABIDIOL] and report it.
RESULT: 24 h

---

# test: Drug degradation in simulated gastric fluid at 40 mg incubated for 2 hrs by UPLC-MS analysis
# Format: ADME
# experimental context: read-out: Drug degradation
metric: degraded at 2 h (%)
Unit % implied. Number only.

QUERY: Find the recorded degraded at 2 h belonging to C=C(C)[C@@H]1CCC(C)=C[C@H]1c1c(O)cc(CCCCC)cc1O and report it.
RESULT: 98

---

# target of assay: 5-hydroxytryptamine receptor 2C (Homo sapiens)
# Sequence (P28335 whole entry): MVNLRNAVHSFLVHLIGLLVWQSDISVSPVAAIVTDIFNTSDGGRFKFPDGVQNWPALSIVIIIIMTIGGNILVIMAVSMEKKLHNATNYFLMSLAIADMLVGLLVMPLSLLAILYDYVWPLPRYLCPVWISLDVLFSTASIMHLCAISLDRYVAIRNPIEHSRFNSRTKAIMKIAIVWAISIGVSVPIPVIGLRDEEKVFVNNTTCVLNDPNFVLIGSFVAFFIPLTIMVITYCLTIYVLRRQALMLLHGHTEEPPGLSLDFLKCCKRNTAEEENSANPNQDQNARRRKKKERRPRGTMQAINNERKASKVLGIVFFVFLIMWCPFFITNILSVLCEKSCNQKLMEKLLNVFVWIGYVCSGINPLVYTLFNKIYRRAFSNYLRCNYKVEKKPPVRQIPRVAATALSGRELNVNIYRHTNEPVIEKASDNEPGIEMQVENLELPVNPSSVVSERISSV
metric: Ki (µM)
Unit µM implied. Number only.

QUERY: Find the recorded Ki belonging to C=C(C)[C@@H]1CCC(C)=C[C@H]1c1c(O)cc(CCCCC)cc1O and report it.
RESULT: 1.1

---

# test: Apparent oral clearance in human in fed state at 5 to 20 mg using oromucosal-spray formulation cotreated with THC by GC-MS analysis
# Type: ADME
# experimental context: in vivo, dose 5-20 mg
metric: CL/F (mL/min)
Unit mL/min implied. Number only.

QUERY: Find the recorded CL/F belonging to C=C(C)[C@@H]1CCC(C)=C[C@H]1c1c(O)cc(CCCCC)cc1O and report it.
RESULT: 8880

---

# target of assay: UniProtKB P20813
# Sequence (P20813 whole entry): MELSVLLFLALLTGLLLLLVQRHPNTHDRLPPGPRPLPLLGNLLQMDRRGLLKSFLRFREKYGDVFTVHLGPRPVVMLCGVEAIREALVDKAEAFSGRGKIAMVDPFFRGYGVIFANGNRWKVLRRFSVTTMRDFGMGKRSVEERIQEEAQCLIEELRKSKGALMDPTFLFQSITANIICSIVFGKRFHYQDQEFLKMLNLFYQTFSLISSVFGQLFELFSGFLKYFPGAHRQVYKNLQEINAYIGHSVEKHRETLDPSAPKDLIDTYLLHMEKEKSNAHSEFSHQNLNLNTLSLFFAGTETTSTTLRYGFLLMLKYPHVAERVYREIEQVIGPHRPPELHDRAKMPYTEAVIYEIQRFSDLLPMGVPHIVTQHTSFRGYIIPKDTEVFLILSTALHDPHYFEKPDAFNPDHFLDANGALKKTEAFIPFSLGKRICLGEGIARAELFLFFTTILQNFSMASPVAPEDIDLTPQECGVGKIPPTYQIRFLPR
# test: Mixed type inhibition of human recombinant CYP2B6 expressed in baculovirus-infected insect cells using […] as substrate preincubated for 5 mins followed by NADPH-generating system addition by Lineweaver-Burk plot analysis
metric: Ki (nM)
Unit nM implied. Number only.

QUERY: Fill in the recorded Ki for this compound, with UniProtKB P20813 as test system: C=C(C)[C@@H]1CCC(C)=C[C@H]1c1c(O)cc(CCCCC)cc1O
RESULT: 690
